# maps each entry to its pIC50
# ASSAYED SYSTEM: PI3 Kinase
# METHOD SUMMARY: PI3K fluorescence polarization assay
# CONDITION DETAILS: 25 μM ATP, diC8-PI(4,5)P2 substrate, 1 hour at 25° C.; read-out: PI3 Kinase Median IC50
pIC50: −log10 of the molar value.

COMPOUND: C=CC(=O)n1cnc2c(N3CCOCC3)nc(-c3cccc(O)c3)nc21 [Compound 91]
pIC50: 7.37
--
COMPOUND: OCc1cccc(-c2nc(N3CCOCC3)c3ncn(C4CCN(Cc5ccc(F)nc5)CC4)c3n2)c1 [Compound 61]
pIC50: 7.33
--
COMPOUND: OCc1cccc(-c2nc(N3CCOCC3)c3ncn(C4CCN(Cc5ccc(F)cc5Cl)CC4)c3n2)c1 [Compound 69]
pIC50: 7.11
--
COMPOUND: COc1cc(COc2cccc(-c3nc(N4CCOCC4)c4nc[nH]c4n3)c2)cc(OC)c1 [Compound 23]
pIC50: 5.21
--
COMPOUND: c1nc2c(N3CCOCC3)nc(-c3ccsc3)nc2[nH]1 [Compound 2, 6-morpholin-4-yl-2-(3-thienyl)-9H-purine]
pIC50: 5.48
--
COMPOUND: OCc1cccc(-c2nc(N3CCOCC3)c3ncn(C4CCN(Cc5ccc(F)cc5F)CC4)c3n2)c1 [Compound 49]
pIC50: 7.36
--
COMPOUND: CC(=O)N1CCC(n2cnc3c(N4CCOCC4)nc(-c4cccc(CO)c4)nc32)CC1 [Compound 26]
pIC50: 6.72
--
COMPOUND: c1ccc(-c2cccc(-c3nc(N4CCOCC4)c4nc[nH]c4n3)c2)cc1 [Compound 14]
pIC50: 5.35
--
COMPOUND: Oc1cccc(-c2nc(N3CCOCC3)c3ncn(C4CCN(Cc5ccccn5)CC4)c3n2)c1 [Compound 77]
pIC50: 6.81
--
COMPOUND: CC(C)(C)OC(=O)N1CCC(n2cnc3c(N4CCOCC4)nc(-c4cccc(CO)c4)nc32)CC1 [Compound 59]
pIC50: 7.02
--
COMPOUND: N#Cc1cccc(-c2nc(N3CCOCC3)c3nc[nH]c3n2)c1 [Compound 13]
pIC50: 5.45
--
COMPOUND: OCc1cccc(-c2nc(N3CCOCC3)c3ncn(C4CCN(Cc5ccc(F)cc5)CC4)c3n2)c1 [Compound 46]
pIC50: 7.15
--
COMPOUND: OCc1cccc(-c2nc(N3CCOCC3)c3ncn(C4CCN(Cc5cccc(N6CCOCC6)n5)CC4)c3n2)c1 [Compound 72]
pIC50: 7.00
--
COMPOUND: FC(F)(F)c1cccc(-c2nc(N3CCOCC3)c3nc[nH]c3n2)c1 [Compound 10]
pIC50: 5.24
--
COMPOUND: Oc1cncc(-c2nc(N3CCOCC3)c3ncn(C4CCN(Cc5ccc[nH]5)CC4)c3n2)c1 [Compound 39]
pIC50: 7.51
--
COMPOUND: OCc1cccc(-c2nc(N3CCOCC3)c3ncn(C4CCN(Cc5c(F)cc(F)cc5F)CC4)c3n2)c1 [Compound 60]
pIC50: 6.71

----------
# ASSAYED SYSTEM: human TOR (Homo sapiens)
# Construct: FLAG
# METHOD SUMMARY: mTOR enzyme assay (DELFIA format, purified FLAG-TOR, His6-S6K substrate)
# CONDITION DETAILS: 100 μM ATP, 1.25 μM His6-S6K, 2 hours at room temperature; read-out: TOR Kinase Median IC50
This section presents molecules with their documented IC50 values.
QUANTITY NAME: IC50 (nM)

MOLECULE: Oc1cccc(-c2nc(N3CCOCC3)c3ncn(CC4CCN(Cc5ccccc5)CC4)c3n2)c1 [Compound 27]
ASSAYED SYSTEM: human TOR (Homo sapiens)
QUANTITY NAME: IC50
SIGN QUALIFIER: =
NUMERIC RESULT: 600
--
MOLECULE: OCc1cccc(-c2nc(N3CCOCC3)c3ncn(C4CCN(Cc5cncc(F)c5)CC4)c3n2)c1 [Compound 66]
ASSAYED SYSTEM: human TOR (Homo sapiens)
QUANTITY NAME: IC50
SIGN QUALIFIER: >
NUMERIC RESULT: 4000
--
MOLECULE: OCc1cccc(-c2nc(N3CCOCC3)c3ncn(C4CCN(Cc5cccc(N6CCOCC6)n5)CC4)c3n2)c1 [Compound 72]
ASSAYED SYSTEM: human TOR (Homo sapiens)
QUANTITY NAME: IC50
SIGN QUALIFIER: =
NUMERIC RESULT: 1800
--
MOLECULE: OCc1ccc(-c2nc(N3CCOCC3)c3nc[nH]c3n2)cc1 [Compound 5]
ASSAYED SYSTEM: human TOR (Homo sapiens)
QUANTITY NAME: IC50
SIGN QUALIFIER: =
NUMERIC RESULT: 4500
--
MOLECULE: OCc1cccc(-c2nc(N3CCOCC3)c3ncn(CC4CCN(Cc5ccccc5)CC4)c3n2)c1 [Compound 29]
ASSAYED SYSTEM: human TOR (Homo sapiens)
QUANTITY NAME: IC50
SIGN QUALIFIER: =
NUMERIC RESULT: 10500
--
MOLECULE: COc1cccc(-c2nc(N3CCOCC3)c3nc[nH]c3n2)c1 [Compound 53]
ASSAYED SYSTEM: human TOR (Homo sapiens)
QUANTITY NAME: IC50
SIGN QUALIFIER: >
NUMERIC RESULT: 20000
--
MOLECULE: Oc1ccccc1-c1nc(N2CCOCC2)c2nc[nH]c2n1 [Compound 3, 2-(6-morpholin-4-yl-9H-purin-2-yl)phenol]
ASSAYED SYSTEM: human TOR (Homo sapiens)
QUANTITY NAME: IC50
SIGN QUALIFIER: =
NUMERIC RESULT: 2500
--
MOLECULE: OCc1cccc(-c2nc(N3CCOCC3)c3ncn(C4CCN(Cc5ccc(F)cc5Cl)CC4)c3n2)c1 [Compound 69]
ASSAYED SYSTEM: human TOR (Homo sapiens)
QUANTITY NAME: IC50
SIGN QUALIFIER: =
NUMERIC RESULT: 1550
--
MOLECULE: c1csc(-c2nc(N3CCOCC3)c3nc[nH]c3n2)c1 [Compound 1, 6-morpholin-4-yl-2-(2-thienyl)-9H-purine]
ASSAYED SYSTEM: human TOR (Homo sapiens)
QUANTITY NAME: IC50
SIGN QUALIFIER: =
NUMERIC RESULT: 2800
--
MOLECULE: Oc1cccc(-c2nc(N3CCOCC3)c3ncn(C4CCN(Cc5ccc(F)nc5)CC4)c3n2)c1 [Compound 84]
ASSAYED SYSTEM: human TOR (Homo sapiens)
QUANTITY NAME: IC50
SIGN QUALIFIER: =
NUMERIC RESULT: 310
--
MOLECULE: OCc1cccc(-c2nc(N3CCOCC3)c3ncn(C4CCN(Cc5ccccc5)CC4)c3n2)c1 [Compound 51]
ASSAYED SYSTEM: human TOR (Homo sapiens)
QUANTITY NAME: IC50
SIGN QUALIFIER: =
NUMERIC RESULT: 1000
--
MOLECULE: CC(C)(C)OC(=O)N1CCC(n2cnc3c(N4CCOCC4)nc(-c4cccc(O)c4)nc32)CC1 [Compound 57]
ASSAYED SYSTEM: human TOR (Homo sapiens)
QUANTITY NAME: IC50
SIGN QUALIFIER: =
NUMERIC RESULT: 270
--
MOLECULE: CCCCN1CCC(n2cnc3c(N4CCOCC4)nc(-c4cccc(CO)c4)nc32)CC1 [Compound 48]
ASSAYED SYSTEM: human TOR (Homo sapiens)
QUANTITY NAME: IC50
SIGN QUALIFIER: =
NUMERIC RESULT: 4200
--
MOLECULE: Oc1cccc(-c2nc(N3CCOCC3)c3ncn(C4CCN(Cc5ccccn5)CC4)c3n2)c1 [Compound 77]
ASSAYED SYSTEM: human TOR (Homo sapiens)
QUANTITY NAME: IC50
SIGN QUALIFIER: =
NUMERIC RESULT: 290
--
MOLECULE: COc1cc(COc2cccc(-c3nc(N4CCOCC4)c4nc[nH]c4n3)c2)cc(OC)c1 [Compound 23]
ASSAYED SYSTEM: human TOR (Homo sapiens)
QUANTITY NAME: IC50
SIGN QUALIFIER: =
NUMERIC RESULT: 16500
--
MOLECULE: OCc1cccc(-c2nc(N3CCOCC3)c3ncn(C4CCN(Cc5ccc(Cl)nc5)CC4)c3n2)c1 [Compound 63]
ASSAYED SYSTEM: human TOR (Homo sapiens)
QUANTITY NAME: IC50
SIGN QUALIFIER: =
NUMERIC RESULT: 650
--
MOLECULE: Oc1cncc(-c2nc(N3CCOCC3)c3ncn(C4CCNCC4)c3n2)c1 [Compound 36]
ASSAYED SYSTEM: human TOR (Homo sapiens)
QUANTITY NAME: IC50
SIGN QUALIFIER: =
NUMERIC RESULT: 970
--
MOLECULE: OCc1cccc(-c2nc(N3CCOCC3)c3ncn(C4CCN(Cc5ccco5)CC4)c3n2)c1 [Compound 52]
ASSAYED SYSTEM: human TOR (Homo sapiens)
QUANTITY NAME: IC50
SIGN QUALIFIER: =
NUMERIC RESULT: 490
--
MOLECULE: Nc1ncc(-c2nc(N3CCOCC3)c3ncn(C4CCN(Cc5ccccc5)CC4)c3n2)cn1 [Compound 31]
ASSAYED SYSTEM: human TOR (Homo sapiens)
QUANTITY NAME: IC50
SIGN QUALIFIER: =
NUMERIC RESULT: 220
--
MOLECULE: OCc1cccc(-c2nc(N3CCOCC3)c3ncn(C4CCN(Cc5ccc(F)cc5F)CC4)c3n2)c1 [Compound 49]
ASSAYED SYSTEM: human TOR (Homo sapiens)
QUANTITY NAME: IC50
SIGN QUALIFIER: =
NUMERIC RESULT: 2050
--
MOLECULE: CCNC(=O)Nc1ccc(-c2nc(N3CCOCC3)c3ncn(C4CCN(Cc5cccnc5)CC4)c3n2)cc1 [Compound 90]
ASSAYED SYSTEM: human TOR (Homo sapiens)
QUANTITY NAME: IC50
SIGN QUALIFIER: =
NUMERIC RESULT: 12
--
MOLECULE: OCc1cccc(-c2nc(N3CCOCC3)c3ncn(C4CCN(Cc5ccccc5)CC4)c3n2)c1 [Compound 33]
ASSAYED SYSTEM: human TOR (Homo sapiens)
QUANTITY NAME: IC50
SIGN QUALIFIER: =
NUMERIC RESULT: 700
--
MOLECULE: CC(=O)N1CCC(n2cnc3c(N4CCOCC4)nc(-c4cccc(CO)c4)nc32)CC1 [Compound 26]
ASSAYED SYSTEM: human TOR (Homo sapiens)
QUANTITY NAME: IC50
SIGN QUALIFIER: =
NUMERIC RESULT: 2100
--
MOLECULE: OCc1cccc(-c2nc(N3CCOCC3)c3ncn(C4CCN(Cc5cccc(F)c5)CC4)c3n2)c1 [Compound 50]
ASSAYED SYSTEM: human TOR (Homo sapiens)
QUANTITY NAME: IC50
SIGN QUALIFIER: =
NUMERIC RESULT: 1400
--
MOLECULE: c1cc2cc(-c3nc(N4CCOCC4)c4nc[nH]c4n3)ccc2[nH]1 [Compound 6]
ASSAYED SYSTEM: human TOR (Homo sapiens)
QUANTITY NAME: IC50
SIGN QUALIFIER: =
NUMERIC RESULT: 180
--
MOLECULE: C=CC(=O)n1cnc2c(N3CCOCC3)nc(-c3cccc(O)c3)nc21 [Compound 91]
ASSAYED SYSTEM: human TOR (Homo sapiens)
QUANTITY NAME: IC50
SIGN QUALIFIER: =
NUMERIC RESULT: 73
--
MOLECULE: OCc1cncc(-c2nc(N3CCOCC3)c3ncn(C4CCN(Cc5ccccc5)CC4)c3n2)c1 [Compound 35]
ASSAYED SYSTEM: human TOR (Homo sapiens)
QUANTITY NAME: IC50
SIGN QUALIFIER: =
NUMERIC RESULT: 1000
--
MOLECULE: OCc1cccc(-c2nc(N3CCOCC3)c3ncn(C4CCN(Cc5ccc(F)nc5)CC4)c3n2)c1 [Compound 61]
ASSAYED SYSTEM: human TOR (Homo sapiens)
QUANTITY NAME: IC50
SIGN QUALIFIER: =
NUMERIC RESULT: 710
--
MOLECULE: c1nc2c(N3CCOCC3)nc(-c3ccsc3)nc2[nH]1 [Compound 2, 6-morpholin-4-yl-2-(3-thienyl)-9H-purine]
ASSAYED SYSTEM: human TOR (Homo sapiens)
QUANTITY NAME: IC50
SIGN QUALIFIER: =
NUMERIC RESULT: 3900
--
MOLECULE: CN(C)CCCOc1ccc(CN2CCC(n3cnc4c(N5CCOCC5)nc(-c5cccc(CO)c5)nc43)CC2)cc1 [Compound 75]
ASSAYED SYSTEM: human TOR (Homo sapiens)
QUANTITY NAME: IC50
SIGN QUALIFIER: >
NUMERIC RESULT: 4000
--
MOLECULE: OCc1cccc(-c2nc(N3CCOCC3)c3ncn(C4CCN(Cc5ccc(F)c(F)c5)CC4)c3n2)c1 [Compound 62]
ASSAYED SYSTEM: human TOR (Homo sapiens)
QUANTITY NAME: IC50
SIGN QUALIFIER: =
NUMERIC RESULT: 1200

Source of measurements: patent US20080233127A1
